Biological target: LCAT (Homo sapiens)
Construct: The obtained fraction was dialyzed against phosphate-buffered saline (pH 7.4) and used as an enzyme source and an acceptor for LCAT
Assay: LCAT activity measurement (in vitro), [14C]cholesterol esterification with HDL3 fraction
Conditions: HDL3 fraction from plasma of a healthy person as enzyme source and acceptor; 37° C., approximately 16 hours; relative to sample without test drug; read-out: EC50 of LCAT activation
Experimental: A fraction composed of HDL3 (1.125 <specific gravity <1.210 g/mL) was obtained from the plasma of a healthy person by density gradient centrifugation. […] The radioactivity of a portion corresponding to cholesterol oleate was measured using an imaging analyzer BAS-2500 (manufactured by Fujifilm Corp.). […] The EC50 value of LCAT activation was calculated according to the expression given below relative to LCAT activity in the sample non-supplemented with the test drug. […]
Each record is given Satisfied if its reported EC50 is strictly below 60 nM. Records at or above 60 nM are given Not satisfied.

> print(dat)
                                   compound          group
1  O=C1Nc2[nH]nc(C3CCN(c4cnc(C(F)(F)F)cn4)CC3)c2C(O)(C(F)(F)F)C1O (single isomer, unassigned; (+))      Satisfied
2  O=C1Nc2[nH]nc(C3CCN(c4ccc(Cl)cn4)CC3)c2[C@@H](C(F)(F)F)[C@H]1O (single isomer, unassigned)      Satisfied
3  O=C1Nc2[nH]nc(C3CCN(c4cnc(C(F)(F)F)nc4)CC3)c2[C@@H](C(F)(F)F)[C@H]1O (racemic) [Example 12]      Satisfied
4  O=C1Nc2[nH]nc(C3CCN(c4nc(C(F)(F)F)cs4)CC3)c2[C@@H](C(F)(F)F)[C@H]1O (racemic)  Not satisfied
5  O=C1Nc2[nH]nc(C3CCN(c4nnc(C(F)(F)F)s4)CC3)c2[C@@H](C(F)(F)F)[C@H]1O (single isomer, unassigned)  Not satisfied

Could you now consider this next compound?
Dear colleague, could you confirm whether EC50 of O=C1Nc2[nH]nc(C3CCN(c4cnc(C(F)(F)F)cn4)CC3)c2[C@@H](C(F)(F)F)[C@@H]1O (racemic) falls below 60 nM? Thanks.
Not satisfied

---

Target: LCAT (Homo sapiens, UniProt P04180)
Construct: The obtained fraction was dialyzed against phosphate-buffered saline (pH 7.4) and used as an enzyme source and an acceptor for LCAT
Sequence (P04180 25-440): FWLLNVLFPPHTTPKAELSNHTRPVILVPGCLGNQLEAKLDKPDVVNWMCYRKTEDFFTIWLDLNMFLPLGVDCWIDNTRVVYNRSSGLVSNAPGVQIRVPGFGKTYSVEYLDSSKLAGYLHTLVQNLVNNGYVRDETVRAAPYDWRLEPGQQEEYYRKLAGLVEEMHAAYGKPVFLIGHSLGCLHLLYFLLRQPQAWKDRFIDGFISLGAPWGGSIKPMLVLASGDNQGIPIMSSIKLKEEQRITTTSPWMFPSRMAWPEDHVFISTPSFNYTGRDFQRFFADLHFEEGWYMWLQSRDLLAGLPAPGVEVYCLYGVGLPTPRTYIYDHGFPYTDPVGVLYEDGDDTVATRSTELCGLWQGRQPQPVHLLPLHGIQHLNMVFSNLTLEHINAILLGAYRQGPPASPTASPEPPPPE
Experiment: LCAT activity measurement (in vitro), [14C]cholesterol esterification with HDL3 fraction
Conditions: HDL3 fraction from plasma of a healthy person as enzyme source and acceptor; 37° C., approximately 16 hours; relative to sample without test drug; read-out: EC50 of LCAT activation
pEC50: −log10 of the molar value.
Label MET for high-side pEC50 (at or above 7) and NOT MET for low-side pEC50 (below it).

Completed entries (count: 2):
> print(dat)
                                   molecule    group
1  N#Cc1ncc(N2CCC(c3n[nH]c4c3[C@@H](C(F)(F)F)[C@@H](O)C(=O)N4)CC2)cc1F (single isomer, unassigned)      MET
2  CC(C)c1nc(N2CCC(c3n[nH]c4c3[C@@H](C(F)(F)F)[C@H](O)C(=O)N4)CC2)cc(C(F)(F)F)n1 (racemic)  NOT MET

Please turn your attention to the following entry.
Dear colleague, could you confirm whether N#Cc1cnc(N2CCC(c3n[nH]c4c3[C@@H](C(F)(F)F)[C@@H](O)C(=O)N4)CC2)cc1C(F)(F)F (single isomer, unassigned) [Example 20] has pEC50 at or above 7?
MET
